Reference source: patent US7030087B2

System: P. aeruginosa
assay comment: Bactericidal activity assay
Type: cell-based, Pseudomonas aeruginosa type 1
condition info: 1.2 × 10^−7 M Peptide; 5 × 105 P. aeruginosa
What Bactericidal Activity, % killing was measured for each of the following?

get_value(item= HIKELQVKMKAQKRFLKWSIIVKLNDGRELSLD [βpep-7] , readout=Bactericidal Activity, % killing) returns 39.1, n = 2%

Query SIQDLNVSMKLFRKQAKWKLIVKLNDGRELSLD [βpep-14] yields Bactericidal Activity, % killing of 0%

The sequence identified as SIQDLNVSMKLFRKQAKWKINVKLNDGRELSLD [βpep-4] registered its Bactericidal Activity, % killing at 37.6, n = 3%
